Taken from patent US20240376170A1.

# testedOn: T1, IL-2 receptor βγ complex (human, UniProt P14784 27-551; P31785 23-369)
# T1 sequence (looked up) 1: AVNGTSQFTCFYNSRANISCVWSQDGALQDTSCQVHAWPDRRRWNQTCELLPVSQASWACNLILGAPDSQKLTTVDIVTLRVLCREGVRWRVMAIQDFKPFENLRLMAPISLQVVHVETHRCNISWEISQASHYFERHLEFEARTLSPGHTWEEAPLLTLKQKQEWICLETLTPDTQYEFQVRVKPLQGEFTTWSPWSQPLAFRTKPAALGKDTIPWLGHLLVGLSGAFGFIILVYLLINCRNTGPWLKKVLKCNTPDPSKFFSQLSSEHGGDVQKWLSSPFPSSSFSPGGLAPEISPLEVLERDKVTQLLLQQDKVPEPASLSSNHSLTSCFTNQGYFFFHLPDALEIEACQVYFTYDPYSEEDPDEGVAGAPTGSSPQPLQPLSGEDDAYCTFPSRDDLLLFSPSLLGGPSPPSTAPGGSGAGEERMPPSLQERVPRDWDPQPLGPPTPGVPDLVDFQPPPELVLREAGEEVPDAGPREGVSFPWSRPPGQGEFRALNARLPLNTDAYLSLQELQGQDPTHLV
# T1 sequence (looked up) 2: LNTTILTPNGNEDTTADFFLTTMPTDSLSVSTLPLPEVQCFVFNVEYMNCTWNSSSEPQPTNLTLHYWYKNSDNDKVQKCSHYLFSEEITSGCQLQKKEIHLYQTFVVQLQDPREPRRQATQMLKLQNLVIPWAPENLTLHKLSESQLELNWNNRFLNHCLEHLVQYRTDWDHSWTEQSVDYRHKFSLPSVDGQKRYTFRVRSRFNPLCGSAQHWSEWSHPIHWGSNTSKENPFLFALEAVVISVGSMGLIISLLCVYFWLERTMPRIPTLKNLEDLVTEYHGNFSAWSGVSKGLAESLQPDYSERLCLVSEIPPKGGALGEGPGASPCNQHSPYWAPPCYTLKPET
# assayOverview: cell-based or functional assay
Primed or numbered codes have the meaning given here. [ ]: non-standard residue; d: D form. 8x polyethylene glycol‑amino = O-(8x polyethylene glycol-amino)-tyrosine, SITE 45; 9x polyethylene glycol‑azido = O-(9x polyethylene glycol-azido)-tyrosine, SITE 42; Ygp″ = O-(8x polyethylene glycol-amino)-tyrosine; Yn3″ = O-(9x polyethylene glycol-azido)-tyrosine; hSer = N[C@@H](CCO)C(=O)O; Nle = CCCC[C@H](N)C(=O)O
quantityName: Average EC50, pSTAT5 Assay in NK cells (nM)
One number for each entry, in nM.

binder: CMP-316, MMP2 cleaved molecule (ligand, also: K23 side chain attached to another sequence, m93 after MMP2 cleavage, product not given here as a sequence) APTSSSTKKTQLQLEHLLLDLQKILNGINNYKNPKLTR[Nle]L[hSer]Y(9x polyethylene glycol‑azido)KFY(8x polyethylene glycol‑amino)[Nle]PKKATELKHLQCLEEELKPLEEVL[hSer]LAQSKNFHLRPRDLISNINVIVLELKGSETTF[hSer]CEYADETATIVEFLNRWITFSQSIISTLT
obsValue: 0.46

Q) Give me measured Average EC50, pSTAT5 Assay in NK cells, please, for this binder: CMP-327, Matriptase cleaved molecule (ligand, ends and bridges not checked; also: Lys9-Glu23 peptide bridge cut by matriptase, fragments left on side chains not given here) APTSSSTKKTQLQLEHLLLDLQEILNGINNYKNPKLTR[Nle]L[hSer][Yn3″]KF[Ygp″][Nle]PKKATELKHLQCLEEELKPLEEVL[hSer]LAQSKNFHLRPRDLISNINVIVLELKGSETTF[hSer]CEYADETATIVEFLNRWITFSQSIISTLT
A) 17.3
